# System: Ctenocephalides felis
# TEST DETAILS: Ctenocephalides felis-test (CTECFE)
# Format: in vivo
# CONDITION CONTEXT: application rate 100 ppm in cattle blood; adult unfed fleas; after 2 days
# Experimental: Solvent: dimethyl sulfoxide To produce a suitable preparation of active compound, 10 mg of active compound are dissolved in 0.5 ml solvent, and the concentrate is diluted with cattle blood to the desired concentration. Approximately 20 adult unfed (Ctenocephalides felis) are placed in flea chambers. […] After 2 days mortality in % is determined. […]
So I've got a bunch of molecules here, and I need their activity (mortality in %) values.
Answers are plain numbers, in %.

> print(dat)
                                   molecule         assayed.target         measured.parameter  measured.result
1  CC(=O)NCc1ccc(N2CC(c3cc(Cl)cc(Cl)c3)(C(F)(F)F)OC2=O)cc1C(F)(F)F (stereo not shown)  Ctenocephalides felis  activity (mortality in %)               95
2  Cc1cc(N2CC(c3cc(C(F)(F)F)cc(C(F)(F)F)c3)(C(F)(F)F)OC2=O)ccc1CNC(=O)CC(F)(F)F (stereo not shown)  Ctenocephalides felis  activity (mortality in %)               80

Give one value of activity (mortality in %) per listed molecule.
1. CCC(=O)NCc1ccc(N2CC(c3cc(Cl)c(Cl)c(Cl)c3)(C(F)(F)F)OC2=O)cc1 (stereo not shown)
2. O=C(NCc1ccc(N2CC(c3cc(C(F)(F)F)cc(C(F)(F)F)c3)(C(F)(F)F)OC2=O)cc1Cl)C1CC1 (stereo not shown)

95
95

* * *

# Test system: Ctenocephalides felis
# TEST DETAILS: Ctenocephalides felis-test (CTECFE)
# Type: in vivo
# CONDITION CONTEXT: application rate 100 ppm in cattle blood; adult unfed fleas; after 2 days
So I've got a bunch of compounds here, and I need their activity (mortality in %) values.

Give one value of activity (mortality in %) per listed compound.
1. Cc1cc(N2CC(c3cc(C(F)(F)F)cc(C(F)(F)F)c3)(C(F)(F)F)OC2=O)ccc1CNC(=O)C1CC1 (stereo not shown)
2. O=C(CC(F)(F)F)NCc1ccc(N2CC(c3cc(C(F)(F)F)cc(C(F)(F)F)c3)(C(F)(F)F)OC2=O)cc1Cl (stereo not shown)
3. Cc1cc(N2CC(c3cc(C(F)(F)F)cc(C(F)(F)F)c3)(C(F)(F)F)OC2=O)ccc1CNC(=O)C[S+](C)[O-] (stereo not shown)
4. O=C(CC(F)(F)F)NCc1ccc(N2CC(c3cc(Cl)cc(Cl)c3)(C(F)(F)F)OC2=O)cc1C(F)(F)F (stereo not shown)

95%
95%
80%
95%

* * *

So I've got a bunch of compounds here, and I need their activity (mortality in %) values.
# System: Musca domestica
# TEST DETAILS: Musca domestica-test
# Assay type: in vivo
# CONDITION CONTEXT: application rate 100 ppm; adults, sugar/compound soaked sponge; after 2 days
One number for each entry, in %.

Previously resolved entries follow.
> print(dat)
                                   compound   assayed.target  unit.of.measurement  measured.result
1  CC(=O)NCc1ccc(N2CC(c3cc(Cl)c(Cl)c(Cl)c3)(C(F)(F)F)OC2=O)cc1C(F)(F)F (centres unmarked)  Musca domestica                    %               90
2  CCC(=O)NCc1ccc(N2CC(c3cccc(C(F)(F)F)c3)(C(F)(F)F)OC2=O)cc1C(F)(F)F (centres unmarked)  Musca domestica                    %               80
3  Cc1cc(N2CC(c3cc(C(F)(F)F)cc(C(F)(F)F)c3)(C(F)(F)F)OC2=O)ccc1CNC(=O)C1CC1 (centres unmarked)  Musca domestica                    %               90
4  O=C(NCc1ccc(N2CC(c3cc(C(F)(F)F)cc(C(F)(F)F)c3)(C(F)(F)F)OC2=O)cc1Cl)C1CC1 (centres unmarked)  Musca domestica                    %               80

Measured on Musca domestica, CCC(=O)NCc1ccc(N2CC(c3cc(Cl)c(Cl)c(Cl)c3)(C(F)(F)F)OC2=O)cc1C(F)(F)F (centres unmarked) has a documented activity (mortality in %) of 90
